Hello, the source for this data is ChEMBL document CHEMBL1909046, in case you need it.

# test-name: DRUGMATRIX: Calcium Channel Type L, Phenylalkylamine radioligand binding (ligand: [3H] (-)-Desmethoxyverapamil (D-888))
# Type: cell membranes, Rattus norvegicus, Wistar, Brain, Membrane
# assay-conditions: Not Active = under 50% inhibition at 10 µM
value-kind: IC50

Answered examples (5):
C#C[C@]1(O)CC[C@H]2[C@@H]3[C@H](C)CC4=C(CCC(=O)C4)[C@H]3CC[C@@]21C    Not Active
CCOc1cc(N)c(Cl)cc1C(=O)NCC1CN(Cc2ccc(F)cc2)CCO1 (stereo unspecified) [MOSAPRIDE]    Not Active
CCCCCCNC(=O)n1cc(F)c(=O)[nH]c1=O    Not Active
C[N+]1(C)[C@@H]2C[C@@H](OC(=O)[C@H](CO)c3ccccc3)C[C@H]1[C@@H]1O[C@@H]12.[Br-] [METHSCOPOLAMINE BROMIDE]    Not Active
C=C(Cl)Cl    Not Active

Turning now to a further compound:
Q: If you can, please state the reported IC50 value of `CO[C@@H]1[C@@H](OC)[C@H](C)[C@@](O)(CC(=O)O)O[C@H]1[C@H](C)[C@H]1O[C@@]2(CC[C@@](C)([C@H]3CC[C@@](C)([C@@H]4O[C@@H]([C@H]5O[C@](C)(O)[C@H](C)C[C@@H]5C)C[C@@H]4O[C@@H]4C[C@H](OC)[C@@H](OC)[C@H](C)O4)O3)O2)C[C@H](O)[C@H]1C.N` .
Ans: Not Active
